# Test system: Huh7 cells
# RECORDED_CONDITIONS: CCK-8 assay
RECORDED_METRIC: CC50 (µM)

>>> result("Cc1cccc(C)c1OCC(=O)N[C@@H](Cc1ccccc1)[C@@H](O)C[C@H](Cc1ccccc1)NC(=O)[C@H](C(C)C)N1CCCNC1=O [Lopinavir, lopinavir]")
64.4

###

# ASSAY_TEXT: in vitro
# RECORDED_CONDITIONS: human
RECORDED_METRIC: CC50

>>> result("CCOC(=O)/C=C/[C@H](C[C@@H]1CCNC1=O)NC(=O)[C@@H](CC(=O)[C@@H](NC(=O)c1cc(C)on1)C(C)C)Cc1ccc(F)cc1")
"> 100 µM"

###

# Tested on: SARS-CoV-2
# Format: cell-based
RECORDED_METRIC: NP expression by IFA

>>> result("CCOC(=O)/C=C/[C@H](C[C@@H]1CCNC1=O)NC(=O)[C@@H](CC(=O)[C@@H](NC(=O)c1cc(C)on1)C(C)C)Cc1ccc(F)cc1")
"confirmed by IFA"
>>> result("C#CC[C@@H](C(=O)N[C@H](/C=C/C(=O)OCC)C[C@@H]1CCNC1=O)n1cccc(NC(=O)c2cc(C)on2)c1=O")
"confirmed by IFA"
